Test system: EKVX NSCLC
Test: NCI-60 one-dose screen, 48 h
Conditions: 10 µM unless noted
The panel holds about 83,000 compounds, 20% with a hit somewhere; the sample as a whole holds those more often. Calls of active or inactive are those of the source. How the source made its calls: active means growth percent below 10; inactive means the rest.
Answer with one of the outcomes given here: True for active, False for inactive

Field: outcome | Entry: CCOC(=O)c1ccc(Nc2ccnc(SCC(=O)c3ccc(C#N)cc3)n2)cc1
False

Field: outcome | Entry: CC1=CC2(C)/C=C(C)/C=C\CC(O)/C=C3/C=CC(=C4C(=O)OC2(CC1C)C4=O)OC3 (centres undefined)
False

Field: outcome | Entry: O=C1NC(=O)C(=Cc2cn(Cc3ccccn3)c3ccccc23)C(=O)N1
False

Field: outcome | Entry: CCCC1C(C(=O)OCC)=C(N)Oc2cc(O)ccc21 (centres undefined)
False

Field: outcome | Entry: FC(F)(F)c1cccc(Oc2ccc(Nc3ncnc4ccc(OCCCN5CCOCC5)cc34)cc2Cl)c1
False

Field: outcome | Entry: CN1C2CCC1CN(c1cnc(C(=O)Nc3cc(F)cc4cccnc34)cn1)C2
False

Field: outcome | Entry: C[C@H]1[C@H](C)CC[C@]2(CO)CC[C@]3(C)C(=CC[C@@H]4[C@@]5(C)Cc6c([nH]c7ccccc67)C(C)(C)[C@@H]5CC[C@]43C)[C@H]12
False

Field: outcome | Entry: C[C@]12C[C@H]1CC[C@]1(C)[C@@H]2CC[C@@]23C[C@H](CC[C@H]21)[C@@](O)(CO)C3
False

Field: outcome | Entry: CC(=O)NCCCS(=O)(=O)O
False

Field: outcome | Entry: CC(C)CCSc1nc(NNC(N)=O)c(C#N)c(-c2ccccc2)n1
False

Field: outcome | Entry: NC(=S)N/N=C/c1ccc(OC(=O)COc2cc(Cl)c(Cl)cc2Cl)cn1
False

Field: outcome | Entry: COc1ccc(C2CC(c3cccc(Nc4ccncc4)c3)=NN2c2ccccc2)cc1 (centres undefined)
False

Field: outcome | Entry: Cc1ccc(Nc2cc(=S)nc(N)[nH]2)cc1C
False

Field: outcome | Entry: COc1cc(CCNc2nc3cc(N)cc(N)c3nc2-c2ccccc2)cc(OC)c1
False

Field: outcome | Entry: COc1ccc2c(c1)c(CC(=O)NCCOCCOCC(=O)Nc1ccc(OC)c(C(N)=O)c1O)c(C)n2C(=O)c1ccc(Cl)cc1
False

Field: outcome | Entry: CN(C)C(=O)c1cc2cnc(Nc3ccc(-c4csc5c(=O)cc(N6CCOCC6)oc45)cc3)nc2n1C1CCCC1
True

Field: outcome | Entry: COc1ccc(C(O)c2cc3c(N)c(C(=O)Nc4ccc(Br)cc4)sc3nc2C)cc1 (centres undefined)
False

Field: outcome | Entry: COc1ccc(-c2nc(SCC(C)C)nc(N/N=C(/C)c3ccc(OC)c(OC)c3)c2C#N)cc1
False

Field: outcome | Entry: O=C(O)c1ccc[n+](CC(=O)N2CCN(c3cc4c(cc3F)c(=O)c(C(=O)O)cn4C3CC3)CC2)c1
False

====

System: 786-0 renal
Assay: NCI-60 one-dose screen, 48 h (100 = growth as untreated, 0 = no growth, -100 = all killed)
Details: 10 µM unless noted
Protocol: Cells are grown in 96 well plates and exposed to the test compound for 48 hours. Compounds are tested at a single concentration, which is 10^-5 M for most compounds. The reported endpoint is percent growth (GI% or GIPRCNT), where numbers from 0 - 100% represent growth inhibition, and numbers from -100% - 0 represent cell death. For example, a value of 40 represents 60% growth inhibition. A value of 0 means no net growth occurred over the course of the experiment. […]
Compounds without any hit were thinned out: in the full panel of roughly 83,000, 20% have a hit. Activity calls are given as the source filed them. The calls were made as follows: active = growth percent below 10; inactive = the rest.
Assignment: determine reported growth for the given compounds.

According to the records, this compound O=C1Nc2c(ccc(Cl)c2Cl)/C1=C/c1ccc(O)cc1 displays growth of 92.3% (inactive)

According to the records, this compound CC(=O)[C@@H]1CC[C@]2(C(N)=O)CC[C@]3(C)[C@H](CC[C@@H]4[C@@]5(C)CCC(=O)C(C)(C)[C@@H]5CC[C@]43C)[C@@H]12 displays growth of 89.6% (inactive)

According to the records, this compound Cn1/c(=N/NC(N)=S)ccc2ccccc21 displays growth of 104% (inactive)

According to the records, this compound CNC(=O)NCC1OC(n2cnc3c(NC(=O)Nc4ccccc4)ncnc32)C(O[Si](C)(C)C(C)(C)C)C1O[Si](C)(C)C(C)(C)C (stereo not given) displays growth of 16.5% (inactive)

According to the records, this compound CC(=O)[C@@H]1CC[C@]2(C(=O)n3ccnc3)CC[C@]3(C)[C@H](CC[C@@H]4[C@@]5(C)Cc6c([nH]c7ccccc67)C(C)(C)[C@@H]5CC[C@]43C)[C@@H]12 displays growth of 94.4% (inactive)

According to the records, this compound COc1ccc(Cc2nc3cc(OC)c(OC)cc3c(=O)[nH]2)cc1 displays growth of 86.9% (inactive)

According to the records, this compound COc1cc(-c2nc3sccn3c2-c2ccnc(NCCNS(=O)(=O)c3ccc(F)cc3)n2)ccc1F displays growth of 30.9% (inactive)

According to the records, this compound Cc1ccc(/C=C/C(=O)c2ccc(N)cc2)c(C)c1 displays growth of -63.5% (active)

According to the records, this compound O=C(N/N=C/c1ccncc1)c1ccccc1Nc1cccc(C(F)(F)F)c1 displays growth of 86.7% (inactive)

According to the records, this compound CN1CCN(c2ccc3nc(-c4cc(C(C)(C)C)c(O)c(C(C)(C)C)c4)[nH]c3c2)CC1 displays growth of 55.4% (inactive)

According to the records, this compound CCN(CC)CCCC(Nc1c2ccc(Cl)cc2nc2ccc(OC)cc12)c1ccc(Cl)cc1 (stereo not given) displays growth of -84% (active)

According to the records, this compound CCCCCCN(C)Cc1ccc(OCCOc2ccc(CN(C)CCCCCC)cc2)cc1 displays growth of -72.6% (active)

According to the records, this compound O=C(O)c1cn(C2CC2)c2cc(N3CCN(C(=O)C[n+]4cccc5ccccc54)CC3)c(F)cc2c1=O displays growth of 48.5% (inactive)

According to the records, this compound O=C(Nc1ccc2cc3ccc(NC(=O)N4CCCCCC4)cc3nc2c1)N1CCCCCC1 displays growth of -57.9% (active)

According to the records, this compound COc1ccc(C2CC(c3cccc(Nc4ccncc4)c3)=NN2c2ccc(Cl)cc2)cc1 (stereo not given) displays growth of 102% (inactive)

According to the records, this compound c1ccc(CCSc2ncnc3nc[nH]c23)cc1 displays growth of 102% (inactive)

According to the records, this compound O=C(Nc1sc2c(c1C(=O)O)CCCC2)c1cccc(C(F)(F)F)c1 displays growth of 94% (inactive)

According to the records, this compound COc1ccccc1N1CCN(C(=O)c2ccc3nc(NC(=O)c4ccc(NCCc5ccccc5)c([N+](=O)[O-])c4)sc3c2)CC1 displays growth of 110% (inactive)

According to the records, this compound COc1ccc(-c2nc(SCC(C)C)nc(N/N=C(/C)c3ccc(OC)c(OC)c3)c2C#N)cc1 displays growth of 96.9% (inactive)

According to the records, this compound COc1ccc(NC(=O)c2sc3nc(C)c(C(=O)CCc4cccc(OC)c4)cc3c2N)cc1 displays growth of 78.5% (inactive)

According to the records, this compound COc1cc(NCC(O)CN(CC(C)C)C2CCCC2)c2ncccc2c1 (stereo not given) displays growth of 89.3% (inactive)

According to the records, this compound CC(=O)O[C@]1(C(C)=O)CC[C@H]2[C@@H]3C=C(Cl)C4=CC(=O)CC[C@]4(C)[C@H]3CC[C@@]21C displays growth of 99.4% (inactive)

According to the records, this compound Cc1cc(Nc2cccc(C(F)(F)F)c2)n2c(nc3ccccc32)c1C#N displays growth of 58.9% (inactive)

According to the records, this compound COc1ccc(C(=O)/C=C/c2c(OC)cc(OC)cc2OC)c(OC)c1 displays growth of 26.2% (inactive)

According to the records, this compound COc1ccccc1OCC(=O)N1CCCCCC1 displays growth of 117% (inactive)

According to the records, this compound N#CC1=C(N)Oc2c(ccc3ccccc23)C1c1ccc([N+](=O)[O-])cc1 (stereo not given) displays growth of 102% (inactive)

According to the records, this compound CC(C)(C)OC(=O)N1C/C(=C\c2ccoc2)C(=O)/C(=C/c2ccoc2)C1 displays growth of 93.8% (inactive)

According to the records, this compound COc1ccc(-c2nc(SCCC(C)C)nc(N/N=C(/C)c3ccc(C)cc3)c2C#N)cc1 displays growth of 102% (inactive)

According to the records, this compound COc1cc2nc(-c3ccc(C(F)(F)F)cc3)cc(OCCN3CCCC3)c2cc1OC displays growth of 76.4% (inactive)

According to the records, this compound Cc1ccc(C(=O)Nc2ccccc2C(=O)N/N=C(\c2ccccc2)c2ccccn2)cc1 displays growth of -17.1% (active)

According to the records, this compound CCCCOc1ccc(/C=N/Nc2cc(C)nc3ccc(Cl)cc23)cc1 displays growth of -80.9% (active)

According to the records, this compound O=C1Nc2c(ccc(Cl)c2Cl)/C1=C/c1ccccn1 displays growth of 12.5% (inactive)

According to the records, this compound COc1ccc(/C=C(/c2ccccc2)[N+](=O)[O-])cc1 displays growth of -93.4% (active)

According to the records, this compound OC(c1ccccc1)c1ccccn1 (stereo not given) displays growth of 97.2% (inactive)

According to the records, this compound Clc1ccc(N2N=C(c3cccc(Nc4ccncc4)c3)CC2c2ccc3c(c2)OCO3)cc1 (stereo not given) displays growth of 56.9% (inactive)

According to the records, this compound NC(=O)c1cccc(-c2ccccc2N2CCCCC2)c1 displays growth of 85.3% (inactive)

According to the records, this compound CC[N+](CC)(CCCC(C)[N+]1(Cc2ccccc2)C(C)=CC=C1C)Cc1ccccc1 (stereo not given) displays growth of 99.5% (inactive)

According to the records, this compound NC(=S)N/N=C(/c1ccccc1)c1ccccc1N displays growth of 101% (inactive)

According to the records, this compound Nc1c(Cl)cc([N+](=O)[O-])cc1Br displays growth of 87.8% (inactive)

According to the records, this compound CCNC(=O)c1[nH]cc(-c2ccc(OC)cc2)c1-c1cc(OC)cc(OC)c1 displays growth of 95.6% (inactive)
